assay overview: Cytotoxicity against human H1299 cells after 72 hrs by Alamar blue assay
Format: functional, cell-based
condition context: NCI-H1299, 72 h
pIC50: −log10 of the molar value.
Below: a set of entries, each annotated with reported pIC50.
measure name: pIC50

[[record]]
compound = "COc1ccc(-c2c(COC(=O)NC(C)C)c(COC(=O)NC(C)C)c3n2Cc2ccccc2C3)cc1"
observed_value = 4.88

[[record]]
compound = "Cc1c(COC(=O)NC(C)C)c(COC(=O)NC(C)C)c2n1Cc1ccccc1C2"
observed_value = 5.01

[[record]]
compound = "CC(C)NC(=O)OCc1c(COC(=O)NC(C)C)c(-c2ccc(F)cc2)n2c1Cc1ccccc1C2"
observed_value = 5.09

[[record]]
compound = "OCc1c(CO)c(-c2ccc(F)cc2)n2c1Cc1ccccc1C2"
observed_value = 5.06

[[record]]
compound = "COc1ccc(-c2c(CO)c(CO)c3n2Cc2ccccc2C3)cc1"
observed_value = 4.86

